# Tested on: glucagon receptor (UniProt P47871 26-477, limits assumed)
# Sequence (P47871 26-477 limits assumed): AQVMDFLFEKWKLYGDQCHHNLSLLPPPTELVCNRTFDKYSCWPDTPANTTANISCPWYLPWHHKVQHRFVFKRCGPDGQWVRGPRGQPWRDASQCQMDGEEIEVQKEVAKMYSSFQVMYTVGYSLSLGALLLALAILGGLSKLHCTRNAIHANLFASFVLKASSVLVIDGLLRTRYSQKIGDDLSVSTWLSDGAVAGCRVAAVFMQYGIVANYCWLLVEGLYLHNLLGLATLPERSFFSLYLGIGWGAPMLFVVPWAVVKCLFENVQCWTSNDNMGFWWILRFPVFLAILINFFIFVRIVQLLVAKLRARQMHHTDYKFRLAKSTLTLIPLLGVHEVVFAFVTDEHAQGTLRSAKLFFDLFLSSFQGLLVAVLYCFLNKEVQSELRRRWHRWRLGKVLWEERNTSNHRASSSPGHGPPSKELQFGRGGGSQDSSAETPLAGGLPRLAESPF
# Experimental details: cell-based or functional assay
*1 amine or outer side, *2 acyl side, *3 side chain or, on linkers, in order; H or OH if unused. Where no end group is shown, it is not given here. Side-chain parts run from the residue outwards. [ ]: non-standard residue; d: D form. The star is where a group is joined. γGlu = O=C(O)[C@H](CCC(=O)[*:2])N[*:1]; Palmitoyl = CCCCCCCCCCCCCCCC(=O)*; Aib = CC(C)(N)C(=O)O
Measured EC50 (cAMP, nmole) values are reported for all entries that follow.

| Binder | EC50 (cAMP, nmole) (nmol) |
| --- | --- |
| H[Aib]QGTFTSDK([γGlu-Palmitoyl])SKYLDERAAQDFVQWLLDGGPSSGAPPPS-NH2 [Analog No. 30: Aib2, K10acyl, E16, A18, L27, D28, G29 + CEX (SEQ ID NO: 28)] | 0.004 |
| H[Aib]QGTFTSDYSKYLDERAAQDFVQWLLDGGPSSGAPPPSK-NH2 (also: Lys40 branched dual acylation K*K(γE-C16)2) [dual acylated peptide of SEQ ID NO: 161] | 0.011 |
| HXQGTFTSDKSKYLDERAAQDFVQWLLDGGPSSGAPPPS (aib at 2; Lys10 carrying two acylations in a linear formation, K*(C12-rEC16); amide) [dual acylated peptide of SEQ ID NO: 162] | 0.008 |
| HXQGTFTSDKSKYLDERAAQDFVQWLLDGGPSSGAPPPS (aib at 2; Lys10 carrying two acylations in a branched formation, K*K(rEC16)2; amide) [dual acylated peptide of SEQ ID NO: 160] | 0.024 |
